Assayed System: human Edg-1 (S1P1) (Homo sapiens)
Sequence (P21453 whole entry): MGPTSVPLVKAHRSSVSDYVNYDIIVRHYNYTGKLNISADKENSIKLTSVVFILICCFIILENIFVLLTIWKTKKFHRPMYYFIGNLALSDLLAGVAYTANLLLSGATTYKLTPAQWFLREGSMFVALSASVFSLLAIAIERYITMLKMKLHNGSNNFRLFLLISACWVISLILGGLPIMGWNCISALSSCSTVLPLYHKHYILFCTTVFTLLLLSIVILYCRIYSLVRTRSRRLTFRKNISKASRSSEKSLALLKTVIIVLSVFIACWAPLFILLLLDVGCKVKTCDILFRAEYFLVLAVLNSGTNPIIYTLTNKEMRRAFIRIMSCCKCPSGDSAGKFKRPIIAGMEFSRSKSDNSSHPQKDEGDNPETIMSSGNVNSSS
Metric: pIC50
Worth noting: pIC50 values are minus log10 of concentrations stated in mol/L.

A selection of reference data follows.
{"columns": ["Compound", "pIC50"],
 "data": [
  ["CCn1c(C(C)NS(=O)(=O)c2ccc(Cl)c(Cl)c2)cnc1Oc1cccc(N2CCOCC2)c1 (centres unmarked)", 7.96],
  ["CCC(NS(=O)(=O)c1ccc2c(Cl)cccc2c1)c1cnc(Oc2ccc(F)cc2)n1CC (centres unmarked)", 7.64],
  ["CCn1c(C(C)NS(=O)(=O)c2ccc(Cl)c(Cl)c2)cnc1Oc1ccc(OC)cc1 (centres unmarked)", 7.63],
  ["CCn1c(C(C)NS(=O)(=O)c2ccc(Cl)c(Cl)c2)cnc1Oc1cccc(-n2ccnc2)c1 (centres unmarked)", 7.38]
]}

Now take the following compound into account.
## Task Send back human Edg-1 (S1P1) (Homo sapiens) pIC50 of CCn1c(C(C)NS(=O)(=O)c2ccc3c(Cl)cccc3c2)cnc1Oc1cccc(N2CCN(C)CC2)c1 (centres unmarked) only.
## Result 8.43
